target: GPR6 (Homo sapiens); construct: expressed in transfected cells; host or cells: CHO cells; assay: GPR6 antagonist functional cAMP assay (LANCE Ultra cAMP TR-FRET, CHO cells stably expressing GPR6); format: cell-based; conditions: procedure as described in Example 24
Sequence (P46095 whole entry): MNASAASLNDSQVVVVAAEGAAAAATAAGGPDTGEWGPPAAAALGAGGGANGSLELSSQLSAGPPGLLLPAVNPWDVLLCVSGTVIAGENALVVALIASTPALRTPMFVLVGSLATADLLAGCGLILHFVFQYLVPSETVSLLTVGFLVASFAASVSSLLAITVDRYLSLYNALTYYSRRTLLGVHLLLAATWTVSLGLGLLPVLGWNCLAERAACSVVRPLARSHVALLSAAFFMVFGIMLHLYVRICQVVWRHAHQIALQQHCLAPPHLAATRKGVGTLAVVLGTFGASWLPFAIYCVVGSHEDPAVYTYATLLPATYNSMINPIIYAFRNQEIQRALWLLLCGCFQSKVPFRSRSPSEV
pIC50: −log10 of the molar value.

Compound: CC(=O)N1CCc2nc(N3CCC(Oc4ccc(F)cc4F)CC3)c(-c3ccc(=O)[nH]c3)nc2C1
Measured target: GPR6 (Homo sapiens)
pIC50: 6.00 to 7.00

Compound: CC(=O)N1CCc2nc(N3CCC(Oc4ccc(F)cc4F)CC3)c(-c3cccc(=O)n3C)nc2C1
Measured target: GPR6 (Homo sapiens)
pIC50: 4.52 to 6.00

Compound: CNC(=O)c1ccc2nc(-c3nccn3COC)c(N3CCN(Cc4cc(Cl)ccc4Cl)CC3)nc2c1
Measured target: GPR6 (Homo sapiens)
pIC50: 4.52 to 6.00

Compound: CC(=O)N1CCc2nc(N3CCC(Oc4ccc(F)cc4F)CC3)c(-c3cnn(C)c3)nc2C1
Measured target: GPR6 (Homo sapiens)
pIC50: 6.00 to 7.00

Compound: CC(=O)N1CCc2nc(N3CCC(Oc4ccc(F)cc4F)CC3)c(-c3cccc(OC(C)C)n3)nc2C1
Measured target: GPR6 (Homo sapiens)
pIC50: 4.52 to 6.00

Compound: COc1ccnc(-c2nc3c(nc2N2CCC(Oc4ccc(F)cc4F)CC2)CCN(C(C)=O)C3)c1
Measured target: GPR6 (Homo sapiens)
pIC50: 4.52 to 6.00

Compound: COc1cncc(-c2nc3c(nc2N2CCC(Oc4ccc(F)cc4F)CC2)CCN(C(C)=O)C3)c1
Measured target: GPR6 (Homo sapiens)
pIC50: 6.00 to 7.00

Compound: CC1CN(Cc2ccc(F)cc2F)CCN1c1nc2ccncc2nc1-c1cn[nH]c1 (single isomer, unassigned)
Measured target: GPR6 (Homo sapiens)
pIC50: 4.52 to 6.00

Compound: CC(=O)N1CCc2nc(N3CCC(Oc4ccc(F)cc4F)CC3)c(-c3cnccn3)nc2C1
Measured target: GPR6 (Homo sapiens)
pIC50: 4.52 to 6.00

Compound: CC(=O)N1CCc2nc(N3CCC(Oc4ccc(F)cc4F)CC3)c(-c3cc[nH]c3)nc2C1
Measured target: GPR6 (Homo sapiens)
pIC50: 6.00 to 7.00

Compound: CC(=O)N1CCc2nc(N3CCC(Oc4ccc(F)cc4F)CC3)c(-c3cnn(CCF)c3)nc2C1
Measured target: GPR6 (Homo sapiens)
pIC50: 6.00 to 7.00

Compound: CS(=O)(=O)c1ccc(CN2CCN(c3nc4ccncc4nc3-c3cn[nH]c3)CC2)c(F)c1
Measured target: GPR6 (Homo sapiens)
pIC50: ≤ 4.52

Compound: CC(=O)N1CCc2nc(N3CCC(Oc4ccc(F)cc4F)CC3)c(-c3ncco3)nc2C1
Measured target: GPR6 (Homo sapiens)
pIC50: 4.52 to 6.00

Compound: Fc1ccc(CN2CCN(c3nc4ccncc4nc3-c3cn[nH]c3)CC2)c(F)c1
Measured target: GPR6 (Homo sapiens)
pIC50: 6.00 to 7.00

Compound: COc1cc(-c2nc3c(nc2N2CCC(Oc4ccc(F)cc4F)CC2)CCN(C(C)=O)C3)ccn1
Measured target: GPR6 (Homo sapiens)
pIC50: 6.00 to 7.00

Compound: CC(=O)N1CCc2nc(N3CCC(Oc4ccc(F)cc4F)CC3)c(-c3ncc[nH]3)nc2C1
Measured target: GPR6 (Homo sapiens)
pIC50: 4.52 to 6.00

Compound: Fc1ccc(OC2CCN(c3nc4ccncc4nc3-c3cnc[nH]3)CC2)c(F)c1
Measured target: GPR6 (Homo sapiens)
pIC50: 4.52 to 6.00

Compound: CC(=O)N1CCc2nc(N3CCC(Oc4ccc(F)cc4F)CC3)c(-c3cn[nH]c3C(C)C)nc2C1
Measured target: GPR6 (Homo sapiens)
pIC50: 4.52 to 6.00

Compound: CC(=O)N1CCc2nc(N3CCC(Oc4ccc(F)cc4F)CC3)c(-c3cccc(C#N)n3)nc2C1
Measured target: GPR6 (Homo sapiens)
pIC50: 6.00 to 7.00

Compound: CC(=O)N1CCc2nc(N3CCC(Oc4ccc(F)cc4F)CC3)c(-c3c(C)nn(C4CCCCO4)c3C)nc2C1 (stereo not shown)
Measured target: GPR6 (Homo sapiens)
pIC50: 4.52 to 6.00

Compound: CC(=O)N1CCc2nc(N3CCC(Oc4ccc(F)cc4F)CC3)c(-c3cn[nH]c3C)nc2C1
Measured target: GPR6 (Homo sapiens)
pIC50: 6.00 to 7.00

Compound: CC(=O)N1CCc2nc(N3CCC(Oc4ccc(F)cc4F)CC3)c(-c3ccn[nH]3)nc2C1
Measured target: GPR6 (Homo sapiens)
pIC50: 4.52 to 6.00

Compound: Fc1ccc(Cl)cc1CN1CCN(c2nc3ccncc3nc2-c2cn[nH]c2)CC1
Measured target: GPR6 (Homo sapiens)
pIC50: 6.00 to 7.00

Compound: CC1CN(c2nc3ccncc3nc2-c2cn[nH]c2)CCN1Cc1ccc(F)cc1F (single isomer, unassigned)
Measured target: GPR6 (Homo sapiens)
pIC50: 4.52 to 6.00

Compound: CC(=O)N1CCc2nc(N3CCC(Oc4ccc(F)cc4F)CC3)c(-c3cccc(C(F)(F)F)n3)nc2C1
Measured target: GPR6 (Homo sapiens)
pIC50: 6.00 to 7.00

Compound: CC(=O)N1CCc2nc(N3CCC(Oc4ccc(F)cc4F)CC3)c(-c3ccncn3)nc2C1
Measured target: GPR6 (Homo sapiens)
pIC50: 4.52 to 6.00

Compound: Fc1ccc(OC2CC3(C2)CN(c2nc4ccncc4nc2-c2cn[nH]c2)C3)c(F)c1
Measured target: GPR6 (Homo sapiens)
pIC50: 4.52 to 6.00

Compound: COc1ccc(-c2nc3c(nc2N2CCC(Oc4ccc(F)cc4F)CC2)CCN(C(C)=O)C3)nc1
Measured target: GPR6 (Homo sapiens)
pIC50: 6.00 to 7.00

Compound: N#Cc1ccc2nc(N3CCN(Cc4cc(Cl)ccc4Cl)CC3)c(-c3ncc[nH]3)nc2c1
Measured target: GPR6 (Homo sapiens)
pIC50: 4.52 to 6.00

Compound: CC(=O)N1CCc2nc(N3CCC(Oc4ccc(F)cc4F)CC3)c(-c3cnc4n3CCNC4)nc2C1
Measured target: GPR6 (Homo sapiens)
pIC50: 4.52 to 6.00

Compound: COc1cccc(-c2nc3cnccc3nc2N2CCN(Cc3ccc(S(C)(=O)=O)cc3F)CC2)n1
Measured target: GPR6 (Homo sapiens)
pIC50: 4.52 to 6.00
